Provide the recorded inhibition for the entries that follow.
test: inhibitors of intracellular T. cruzi replication, confirmation, NIH3T3 host cells, beta-gal parasites, cherry-pick, set 2 (AID 651740);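 further: plate controls were neutral control median for no effect and positive control median for full effect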; conditions: T. cruzi beta-gal in NIH3T3, GalScreen luminescence, 90 h; at 2.09 µM; hits give high values
Among all 5,600 compounds or so, about 1,200 (21%) were called active. Inconclusive results (about 3%) are left out. Not all results are given here.
Numbers only, in %.

smiles	result-number
COc1ccc(-c2ccc([C@H]3[C@H]4CN(C(=O)c5ccc6c(c5)OCO6)CCCCN4[C@H]3CO)cc2)cc1	50.5
CCC(=O)N1CCCCN2[C@H](C1)[C@@H](c1ccc(-c3ccc(F)cc3)cc1)[C@@H]2CO	-6.94
O=C(C1CCC1)N1CCCCN2[C@H](CO)[C@H](c3ccc(-c4cccc(F)c4)cc3)[C@@H]2C1	62

Provide inhibition for all items below, preserving their order.
1. C[C@H]1CN([C@@H](C)CO)C(=O)c2ccccc2-c2ccccc2CO[C@@H]1CN(C)S(=O)(=O)c1ccc(C(F)(F)F)cc1
2. CCCNC(=O)N(C)C[C@@H]1Oc2ncc(C#Cc3ccccc3F)cc2C(=O)N([C@@H](C)CO)C[C@H]1C
3. C[C@H](CO)N1C[C@H](C)[C@@H](CN(C)Cc2ccc(-c3ccccc3)cc2)Oc2ccc(NC(=O)CCC(F)(F)F)cc2CC1=O

Resp:
71.5
94.5
89.8

Req: Please give the measured inhibition for this molecule: C[C@@H]1CCCCO[C@H](CN(C)S(=O)(=O)c2cccs2)[C@H](C)CN([C@H](C)CO)C(=O)c2cc(NS(=O)(=O)c3ccc(F)cc3)ccc2O1
Resp: 62.8

The measurements presented in this section are drawn from PubChem BioAssay AID651740.
